Measured values drawn from patent US20030139373A1 for this set.

# System: H1299 cells
# assay.details: Tetrazolium dye (MTT) proliferation assay, H1299
# Type: cell-based
# condition.set: Homo sapiens, NCI-H1299; MTT assay using H1299 cells
measured.quantity: pIC50
One number for each entry, as −log10 of the molar value.

API: value(readout=pIC50, system=H1299 cells) for record `Nc1ccn([C@@H]2O[C@H](CO)[C@@H](O)C2(F)F)c(=O)n1` 8.42
